B1: Arginine-glutamic acid dipeptide repeats protein, residues 502 to 543; numbered along this chain, Q9P2R6 (parent)
chain: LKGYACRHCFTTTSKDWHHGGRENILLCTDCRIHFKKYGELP

# Variants of: B1
# assay explanation: abundance fitness (aPCA) (normalised: wild type 0, dead -1); higher = more abundant; growth selection in yeast, the domain comes from the species named
# details: Homo sapiens
value kind: abundance fitness
Numbers only.

These solved cases illustrate the format of a correct answer.
| mutant | abundance fitness |
| --- | --- |
| C28G | -0.798 |
| K2T | -0.367 |
| T29Y | 0.02 |

For every listed record, write down its abundance fitness.
1. T11E
2. I25D

(A)
1. -0.4
2. -0.16
